Every entry's value here was drawn from patent US10208030B2.

# Test system: hGPR119 (Homo sapiens, UniProt Q8TDV5)
# Construct: expressed in transfected cells; host or cells: CHO cells (CHO-hGPR119)
# Sequence (Q8TDV5 1-335): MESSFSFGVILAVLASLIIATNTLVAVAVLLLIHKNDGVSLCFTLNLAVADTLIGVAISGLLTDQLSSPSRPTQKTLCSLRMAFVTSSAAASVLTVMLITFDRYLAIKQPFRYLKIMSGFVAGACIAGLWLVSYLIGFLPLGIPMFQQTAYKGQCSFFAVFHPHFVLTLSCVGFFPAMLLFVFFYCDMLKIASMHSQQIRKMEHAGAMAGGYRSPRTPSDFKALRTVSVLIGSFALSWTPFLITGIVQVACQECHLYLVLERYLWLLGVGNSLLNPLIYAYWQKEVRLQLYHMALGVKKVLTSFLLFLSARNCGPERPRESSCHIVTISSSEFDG
# Assay name: In vitro cyclic AMP assay (Cisbio HTRF) in CHO-hGPR119 cells
# Assay type: cell-based
# Measurement context: 1 h, cAMP, 1 μM, 60 min, read-out: Induction (% induction at 1 μM)
Metric name: activation at 1 µM (%)

> print(dat)
                                    compound  recorded.measurement
 1  CC(C)c1noc(N2CCC(C(C)Oc3nn4cc(-c5ccc(C#N)cc5)nc4s3)CC2)n1 (stereo not drawn)                    51
 2  CCCc1cnc(N2CCC(Oc3nc(-c4ccc(S(C)(=O)=O)nc4)ns3)CC2)nc1                    18
 3  CCc1cnc(N2CCC(c3nsnc3-c3ccc(S(C)(=O)=O)cc3)CC2)nc1                     6
 4  C[C@@H](Oc1nn2cc(-c3ccc(S(C)(=O)=O)cc3)nc2s1)C1CCN(c2nc(C(F)(F)F)no2)CC1                    15
 5  CC(C)c1noc(N2CCC(Oc3nc(-c4ccc(S(C)(=O)=O)cc4)ns3)CC2)n1                    36
 6  CC(C)c1noc(N2CCC(C(C)Oc3nn4cc(-c5cnc(Cl)cn5)nc4s3)CC2)n1 (stereo not drawn)                    87
 7  CC(C)c1noc(C2CCN(c3nn4cc(COc5ccc(S(C)(=O)=O)cc5)nc4s3)CC2)n1                     4
 8  C[C@H](Oc1nn2cc(-c3ccc(S(C)(=O)=O)cc3)nc2s1)C1CCN(c2nc(C(F)(F)F)no2)CC1                    33
 9  CC(C)c1noc(N2CCC(COc3nsnc3OCC3CCN(c4nc(C(C)C)no4)CC3)CC2)n1                     2
10  CC(C)c1noc(C2CCN(c3nn4cc(-c5ccc(S(C)(=O)=O)cc5)nc4s3)CC2)n1                    54
11  CC(C)c1noc(N2CCC([C@@H](C)Oc3nn4cc(-c5ccnc(F)c5)nc4s3)CC2)n1                    62
12  CC(C)c1noc(C2CCN(c3nsnc3Oc3ccc(-n4cnnn4)cc3)CC2)n1                     3
13  COc1cc(S(C)(=O)=O)ccc1-c1cn2nc(O[C@@H](C)C3CCN(c4nc(C(C)C)no4)CC3)sc2n1                     9
14  CC(C)c1noc(N2CCC(Oc3nc(N(C)c4ccc(S(C)(=O)=O)nc4)ns3)CC2)n1                     6
15  CC(C)c1noc(C2CCN(c3nsnc3C(=O)Nc3ccc(S(C)(=O)=O)cc3F)CC2)n1                    22

----------
# Test system: hGPR119 (Homo sapiens)
# Construct: expressed in transfected cells; host or cells: CHO cells (CHO-hGPR119)
# Assay name: In vitro cyclic AMP assay (Cisbio HTRF) in CHO-hGPR119 cells
# Assay type: cell-based
# Measurement context: 1 h, cAMP, 1 μM, 60 min, read-out: Induction (% induction at 1 μM)
As shown below, each of these compounds has a reported activation at 1 µM value.
Metric name: activation at 1 µM (%)

> print(dat)
                                    compound         metric.name  recorded.measurement
 1  CC(C)c1noc(N2CCC(Oc3nn4cc(-c5ccc(S(C)(=O)=O)cc5)nc4s3)CC2)n1 [Compound 1018]  activation at 1 µM                    20
 2  CC(C)c1noc(N2CCC(C(C)Oc3nn4cc(-c5cnc(S(C)(=O)=O)nc5)nc4s3)CC2)n1 (stereo not drawn) [Compound 1074]  activation at 1 µM                    44
 3  CC(C)c1noc(C2CCN(c3nsnc3-c3ccc(S(C)(=O)=O)cc3)CC2)n1 [Compound 1007]  activation at 1 µM                    -8
 4  CC(C)c1noc(N2CCC(C(C)Oc3nn4cc(-c5ccncc5C(F)(F)F)nc4s3)CC2)n1 (stereo not drawn) [Compound 1092]  activation at 1 µM                    25
 5  CC(C)c1noc(N2CCC(Oc3nn4cc(COc5ccc(S(C)(=O)=O)cc5)nc4s3)CC2)n1 [Compound 1042]  activation at 1 µM                     2
 6  CC(C)c1noc(N2CCC(C(C)Oc3nn4cc(-c5ccncc5)nc4s3)CC2)n1 (stereo not drawn) [Compound 1050]  activation at 1 µM                    68
 7  CC(C)c1noc(N2CCC(COc3nn4cc(-c5ccncc5)nc4s3)CC2)n1 [Compound 1054]  activation at 1 µM                    16
 8  CC(C)OC(=O)N1CCC([C@H](C)Oc2nn3cc(-c4ccc(S(C)(=O)=O)cc4F)nc3s2)CC1 [Compound 1108]  activation at 1 µM                    70
 9  CCc1cnc(N2CCC(Nc3nn4cc(-c5ccc(S(C)(=O)=O)cc5)nc4s3)CC2)nc1 [Compound 1023]  activation at 1 µM                     0
10  CC(Oc1nn2cc(-c3ccc(S(C)(=O)=O)cc3F)nc2s1)C1CCN(C(=O)OC2(C)CC2)CC1 (stereo not drawn) [Compound 1110]  activation at 1 µM                    71
11  CC(C)c1noc(N2CCC(c3nn4cc(-c5ccc(S(C)(=O)=O)cc5)nc4s3)CC2)n1 [Compound 1027]  activation at 1 µM                    41
12  CC(C)c1noc(N2CCC(N(C)c3nn4cc(-c5ccc(S(C)(=O)=O)cc5)nc4s3)CC2)n1 [Compound 1029]  activation at 1 µM                     9
13  CC(C)c1noc(N2CCC(C(C)Oc3nn4c(F)c(-c5ccc(S(C)(=O)=O)cc5)nc4s3)CC2)n1 (stereo not drawn) [Compound 1061]  activation at 1 µM                    79
14  CC(C)c1noc(N2CCC(C(C)Oc3nn4cc(-c5ccc(S(C)(=O)=O)cc5C(F)(F)F)nc4s3)CC2)n1 (stereo not drawn) [Compound 1091]  activation at 1 µM                    33
15  CCc1cnc(N2CCC([C@H](C)Oc3nn4cc(-c5ccnc(OC)c5)nc4s3)CC2)nc1 [Compound 1093]  activation at 1 µM                    75

----------
# Test system: hGPR119 (Homo sapiens, UniProt Q8TDV5)
# Construct: expressed in transfected cells; host or cells: CHO cells (CHO-hGPR119)
# Assay name: In vitro cyclic AMP assay (Cisbio HTRF) in CHO-hGPR119 cells
# Assay type: cell-based
# Measurement context: 1 h, cAMP, 1 μM, 60 min, read-out: Induction (% induction at 1 μM)
Recorded activation at 1 µM determines the group label, using category 1: < 10%; category 2: ≥ 10% and < 60%; category 3: ≥ 60%

> print(dat)
                                    molecule                             test.system  group.label
 1  CC(C)c1noc(N2CCC(COc3nsc(-c4ccc(S(C)(=O)=O)nc4)n3)CC2)n1 [Compound 1120]  hGPR119 (Homo sapiens, UniProt Q8TDV5)   category 2
 2  CCCc1cnc(N2CCC(C(C)Oc3nn4cc(-c5ccc(C(=O)N(C)C)cc5)nc4s3)CC2)nc1 (stereo not drawn) [Compound 1049]  hGPR119 (Homo sapiens, UniProt Q8TDV5)   category 2
 3  CC(C)OC(=O)N1CCC(C(C)Oc2nn3cc(-c4ccc(S(C)(=O)=O)cc4F)nc3s2)CC1 (stereo not drawn) [Compound 1101]  hGPR119 (Homo sapiens, UniProt Q8TDV5)   category 3
 4  CC(C)c1noc(N2CCC([C@H](C)Oc3nn4cc(-c5cnc(Cl)nc5)nc4s3)CC2)n1 [Compound 1071]  hGPR119 (Homo sapiens, UniProt Q8TDV5)   category 3
 5  CNS(=O)(=O)c1ccc(-c2cn3nc(OC(C)C4CCN(c5nc(C(C)C)no5)CC4)sc3n2)c(F)c1 (stereo not drawn) [Compound 1109]  hGPR119 (Homo sapiens, UniProt Q8TDV5)   category 2
 6  CC(C)c1noc(N2CCC(C(C)Oc3nc(-c4ccc(S(C)(=O)=O)cc4)ns3)CC2)n1 (stereo not drawn) [Compound 1115]  hGPR119 (Homo sapiens, UniProt Q8TDV5)   category 2
 7  CS(=O)(=O)c1ccc(-c2cn3nc(N4CCC(c5nc(C6CC6)no5)CC4)sc3n2)cc1 [Compound 1045]  hGPR119 (Homo sapiens, UniProt Q8TDV5)   category 2
 8  CCCc1cnc(N2CCC([C@H](C)Oc3nn4cc(-c5ccc(S(C)(=O)=O)cc5F)nc4s3)CC2)nc1 [Compound 1085]  hGPR119 (Homo sapiens, UniProt Q8TDV5)   category 3
 9  CC(C)c1noc(N2CCC(Nc3nc(-c4ccc(S(C)(=O)=O)nc4)ns3)CC2)n1 [Compound 1126]  hGPR119 (Homo sapiens, UniProt Q8TDV5)   category 1
10  CC(Oc1nn2cc(-c3ccc(S(C)(=O)=O)cc3)nc2s1)C1CCN(c2nc(C(F)(F)F)no2)CC1 (stereo not drawn) [Compound 1073]  hGPR119 (Homo sapiens, UniProt Q8TDV5)   category 2
11  CC(C)OC(=O)N1CCN(c2nsnc2Oc2ccc(-n3cnnn3)cc2)CC1 [Compound 1010]  hGPR119 (Homo sapiens, UniProt Q8TDV5)   category 1
12  C[C@H](Oc1nn2cc(-c3ccc(S(C)(=O)=O)cc3F)nc2s1)C1CCN(c2ncc(C(F)(F)F)cn2)CC1 [Compound 1098]  hGPR119 (Homo sapiens, UniProt Q8TDV5)   category 3
13  COCCNC(=O)c1ccc(-c2cn3nc(N4CCC(c5nc(C(C)C)no5)CC4)sc3n2)cc1 [Compound 1039]  hGPR119 (Homo sapiens, UniProt Q8TDV5)   category 2
14  CC(C)OC(=O)N1CCC(c2cn3nc(-c4ccc(C(=O)N(C)C)cc4)sc3n2)CC1 [Compound 1034]  hGPR119 (Homo sapiens, UniProt Q8TDV5)   category 2
15  CN(C)C(=O)N1CCC(c2nn3cc(-c4ccc(S(C)(=O)=O)cc4)nc3s2)CC1 [Compound 1033]  hGPR119 (Homo sapiens, UniProt Q8TDV5)   category 1
